- measured-target: furin, P09958;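 note: purified furin at 1:10 enzyme:substrate in 50 mM HEPES pH 7.5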
- Sequence (P09958 whole entry): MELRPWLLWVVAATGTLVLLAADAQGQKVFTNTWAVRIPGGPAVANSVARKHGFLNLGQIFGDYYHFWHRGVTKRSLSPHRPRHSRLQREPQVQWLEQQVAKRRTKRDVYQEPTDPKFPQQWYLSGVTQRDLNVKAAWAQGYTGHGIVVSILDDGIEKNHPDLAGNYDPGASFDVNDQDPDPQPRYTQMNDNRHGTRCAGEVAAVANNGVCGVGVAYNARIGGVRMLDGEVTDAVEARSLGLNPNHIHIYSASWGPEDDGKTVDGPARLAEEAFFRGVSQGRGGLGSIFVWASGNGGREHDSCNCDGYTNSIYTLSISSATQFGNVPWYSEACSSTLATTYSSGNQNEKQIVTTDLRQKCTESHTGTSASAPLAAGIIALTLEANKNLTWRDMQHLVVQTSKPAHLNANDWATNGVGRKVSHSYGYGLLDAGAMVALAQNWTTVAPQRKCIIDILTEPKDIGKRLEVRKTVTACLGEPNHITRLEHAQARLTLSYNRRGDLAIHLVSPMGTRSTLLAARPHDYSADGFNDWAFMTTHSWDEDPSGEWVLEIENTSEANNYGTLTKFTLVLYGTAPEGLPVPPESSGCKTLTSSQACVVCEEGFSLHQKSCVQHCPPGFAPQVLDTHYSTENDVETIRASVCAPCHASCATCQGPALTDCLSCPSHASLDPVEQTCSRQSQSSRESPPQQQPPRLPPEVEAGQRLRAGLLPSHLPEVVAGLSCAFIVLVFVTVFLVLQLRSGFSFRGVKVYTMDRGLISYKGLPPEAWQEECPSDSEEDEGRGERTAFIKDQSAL
- assay-details: furin cleavage Z-score vs untreated control; higher = more cleavage, active = 3.5 or more, inactive = 1 or less, 8 variable residues between constant flanks
- condition-notes: 15 min
This is one part of the list. The hit rate among all sequences tested is not known here.
Outcome: Condition met for furin cleavage Z-score of at least 3; Condition not met for anything lower.

Example entries begin here.
In [3]: df
Out[3]:
                sequence_string     discrete_label
0  CAKSRRARRDAGNASASA [FS-1597]      Condition met
1   CAYSHRHKRVAGNASASA [FS-903]      Condition met
2    CAVIQMYTNVAGNASASA [HC709]  Condition not met
3   CAMEECSDHLAGNASASA [HC1731]  Condition not met
4  CARIARVVLQAGNASASA [FS-2028]  Condition not met
5  CARLLRSLTHAGNASASA [FS-2993]      Condition met
6   CAEVVTSTSVAGNASASA [HC2237]  Condition not met
7  CARARRHAADAGNASASA [FS-2648]      Condition met
8  CARVPRKVQPAGNASASA [FS-3121]  Condition not met
9  CARARRFAQIAGNASASA [FS-2644]  Condition not met

Q. Please check the record CARQGRGSDPAGNASASA [FS-2583] and state if its furin cleavage Z-score is at or above 3.
A. Condition not met

Q. hey, is furin cleavage Z-score for this one >= 3? CALAWRSGRVAGNASASA [FS-817]
A. Condition not met

Q. hey, is furin cleavage Z-score for this one >= 3? CARVRRAVLPAGNASASA [FS-2536]
A. Condition met

Q. Does the reported furin cleavage Z-score for CAKDSRCDRDAGNASASA [FS-544] fall at or above the 3 mark?
A. Condition not met

Q. I'd appreciate it if you could say whether CASCPCSAHLAGNASASA [HC2500] has furin cleavage Z-score at least equal to 3.
A. Condition not met
